Target: SALL4 (Homo sapiens, UniProt Q96SW2+Q9UJQ4)
Construct: Full size proteins are fused for each of the target proteins tested
Assay: Recruitment Assay (MAPPIT-like): SALL4 recruitment, pSEL-SALL4+pMG1-CRBN
Conditions: recruitment of SALL4, protocol of Example 2; read-out: EC50_SALL4
pEC50: −log10 of the molar value.
measuredEndpoint: pEC50

Use the examples below as a reference point.
CC1c2ccccc2C(=O)N1C1CCC(=O)NC1=O (stereo not shown) [Compound C51383] | 7.23
CC(=O)Nc1ccc2c(c1)CN(C1CCC(=O)NC1=O)C2=O (stereo not shown) [Compound C29361] | 6.73
O=C1CCC(N2Cc3cccc(F)c3C2=O)C(=O)N1 (stereo not shown) [Compound C23066] | 7.05

I. O=C1CCC(N2Cc3cc(Nc4ncc5[nH]cnc5n4)ccc3C2=O)C(=O)N1 (stereo not shown) [Compound C80376]
II. O=C1CCC(N2Cc3c(ccc4c3OCO4)C2=O)C(=O)N1 (stereo not shown) [Compound C67858]
III. Cc1nc2ccc(C#N)c(N)c2c(=O)n1C1CCC(=O)NC1=O (stereo not shown) [Compound C10001]
IV. CCOC(=O)Nc1cccc2c1CN(C1CCC(=O)NC1=O)C2=O (stereo not shown) [Compound C22622]
List items by pEC50 in falling order. The labels, placed in the requested order, form the answer. II, IV, I, III

1. O=C1CCC(N2C(=O)c3ccccc3C2O)C(=O)N1 (stereo not shown) [Compound C89940]
2. CC(=O)NC1c2ccccc2C(=O)N1C1CCC(=O)NC1=O (stereo not shown) [Compound C33779]
Given the two records 1 and 2 , choose the one whose pEC50 value is lower. Mark your selection by writing its label. 2

###

Biological target: CRBN (Homo sapiens)
Construct: expressed in transfected cells; host or cells: HEK293T
Assay: Competition Assay: MAPPIT-like, competition with trimethoprim-lenalidomide hybrid ligand for binding to CRBN in HEK293T cells
Format: cell-based
Conditions: protocol and reagents of Example 1; read-out: IC50 Competition
measuredEndpoint: IC50 (nM)

Cn1ncc2c(Nc3ccc4c(c3)C(=O)N(C3CCC(=O)NC3=O)C4)ncnc21 (stereo not drawn) | 148
CN(C)c1ccc2c(c1)CN(C1CCC(=O)NC1=O)C2=O (stereo not drawn) | 145
O=C1CCC(N2Cc3c(ccc4c3OCO4)C2=O)C(=O)N1 (stereo not drawn) | 106

###

Molecular target: CRBN (Homo sapiens, UniProt Q96SW2)
Construct: expressed in transfected cells; host or cells: HEK293T
Assay: Competition Assay: MAPPIT-like, competition with trimethoprim-lenalidomide hybrid ligand for binding to CRBN in HEK293T cells
Assay type: cell-based
Details: protocol and reagents of Example 1; read-out: IC50 Competition
measuredEndpoint: IC50 (µM)

1. CN(CC1CC1)C(=O)CNc1ccc2c(c1)C(=O)N(C1CCC(=O)NC1=O)C2 (stereo not drawn)
2. CC1CCN(C(=O)CNc2ccc3c(c2)C(=O)N(C2CCC(=O)NC2=O)C3)CC1 (stereo not drawn)
3. O=C1CCC(N2Cc3ccccc3C2)C(=O)N1 (stereo not drawn)
List the 3 entries from lowest IC50 to highest IC50 value. Please, when replying, give the labels in the order that was requested. 1, 3, 2
(1: 0.0321 µM, 3: 19.6 µM, 2: 37400 µM)

###

Target: CRBN (Homo sapiens, UniProt Q96SW2)
Construct: expressed in transfected cells; host or cells: HEK293T
Assay: Competition Assay: MAPPIT-like, competition with trimethoprim-lenalidomide hybrid ligand for binding to CRBN in HEK293T cells
Type: cell-based
Settings: protocol and reagents of Example 1; read-out: IC50 Competition
measuredEndpoint: IC50 (µM)

In the examples that follow, each entry is paired with its recorded IC50.
O=C1CCC(N2Cc3ccc(Nc4ncc5c(n4)COC5)cc3C2=O)C(=O)N1 (stereo not shown) | 0.163
O=C1CCC(N2Cc3cccc(-c4ccccc4)c3C2=O)C(=O)N1 (stereo not shown) | 0.546
CN1CCN(C(=O)CNc2ccc3c(c2)C(=O)N(C2CCC(=O)NC2=O)C3)CC1=O (stereo not shown) | 5.5

P. O=C1CCC(N2C(=O)CC3(Cc4ccccc4C3)C2=O)C(=O)N1 (stereo not shown)
Q. CC1CCCCN1C(=O)CNc1ccc2c(c1)C(=O)N(C1CCC(=O)NC1=O)C2 (stereo not shown)
R. Cc1ccc2c(c1)C(=O)N(C1CCC(=O)NC1=O)C2 (stereo not shown)
Reorder the items by IC50, least to greatest. Please respond with the labels ordered as the question requires. Q, R, P
(Q: 7.91e-05 µM, R: 0.178 µM, P: 15.1 µM)

###

Target: DHFR (UniProt P0ABQ4+Q96SW2)
Construct: Full size proteins are fused for each of the target proteins tested; expressed in transfected cells; host or cells: HEK293T
Assay: Recruitment Assay (MAPPIT-like): DHFR recruitment to CRBN, pCLG-DHFR+pMG1-CRBN
Type: cell-based, E. coli
Conditions: HEK293T cells, luciferase 24 hours after compound treatment; read-out: Recruitment EC50 (M), target protein DHFR
measuredEndpoint: EC50 (M)
Entry rule: numbers only, all in M.

COc1cc(Cc2cnc(N)nc2N)cc(OC)c1OCCCCC(=O)NCCOCCOCCOCCNC(=O)CN1CCN(C(=O)CNc2ccc3c(c2)C(=O)N(C2CCC(=O)NC2=O)C3)C(C)C1 (stereo not drawn) | 4.5e-07
COc1cc(Cc2cnc(N)nc2N)cc(OC)c1OCCCCC(=O)NCCOCCOCCOCCNC(=O)c1ccc2c(Nc3ccc4c(c3)C(=O)N(C3CCC(=O)NC3=O)C4)ncnc2c1 (stereo not drawn) | 1.01e-08

Let us examine a further case.
Sample COc1cc(Cc2cnc(N)nc2N)cc(OC)c1OCCCCC(=O)NCCOCCOCCOCCn1cc(CCC(=O)Nc2cccc3c2CN(C2CCC(=O)NC2=O)C3=O)nn1 (stereo not drawn) [TMP-LEN, Trimethoprim-lenalidomide] — what was its EC50? 1.86e-08

###

Target: CRBN (Homo sapiens)
Construct: expressed in transfected cells; host or cells: HEK293T
Assay: Competition Assay: MAPPIT-like, competition with trimethoprim-lenalidomide hybrid ligand for binding to CRBN in HEK293T cells
Type: cell-based
Conditions: protocol and reagents of Example 1; read-out: IC50 Competition
pIC50: −log10 of the molar value.
measuredEndpoint: pIC50

A selection of reference data follows.
O=C1CC/C(=C/c2ccccc2)C(=O)N1 [Compound C68121, (3Z)-3-benzylidenepiperidine-2,6-dione] | 5.19
O=C(O)CNc1cccc2c1CN(C1CCC(=O)NC1=O)C2=O (stereo not shown) | 4.86

P. CN(C)C(=O)CNc1ccc2c(c1)C(=O)N(C1CCC(=O)NC1=O)C2 (stereo not shown)
Q. O=C(O)CNc1ccc2c(c1)C(=O)N(C1CCC(=O)NC1=O)C2 (stereo not shown)
R. CC(=O)NC1c2ccccc2C(=O)N1C1CCC(=O)NC1=O (stereo not shown)
S. NCc1ccc2c(c1)C(=O)N(C1CCC(=O)NC1=O)C2 (stereo not shown)
Please put the entries in order of rising pIC50. Hello, could you send the labels back in the order asked? Thank you. R, Q, S, P

###

Target: SALL4 (Homo sapiens, UniProt Q96SW2+Q9UJQ4)
Construct: Full size proteins are fused for each of the target proteins tested; expressed in transfected cells; host or cells: HEK293T
Assay: Recruitment Assay (MAPPIT-like): SALL4 recruitment, pSEL-SALL4+pMG1-CRBN
Type: cell-based
Details: recruitment of SALL4, protocol of Example 2; read-out: EC50_SALL4
pEC50: −log10 of the molar value.
measuredEndpoint: pEC50

Guide cases for pEC50, answers given:
Cc1cccc2c(=O)n(C3CCC(=O)NC3=O)nnc12 (stereo not shown) | 6.23
N#CC1c2ccccc2C(=O)N1C1CCC(=O)NC1=O (stereo not shown) | 6.06
O=C1CCC(n2nnc3ccccc3c2=O)C(=O)N1 (stereo not shown) | 6.29
NC(=O)c1cccc(NC(=O)CNc2ccc3c(c2)CN(C2CCC(=O)NC2=O)C3=O)c1 (stereo not shown) | 6.19
O=C1CCC(N2Cc3ncccc3C2=O)C(=O)N1 (stereo not shown) | 6.36
O=C1CCC(N2Cc3cc(Nc4ncc5c(n4)COC5)ccc3C2=O)C(=O)N1 (stereo not shown) | 8.00

P. N#Cc1cccc2c1CN(C1CCC(=O)NC1=O)C2=O (stereo not shown)
Q. O=C1CCC(N2Cc3ccc(NCC(=O)NC4CCOCC4)cc3C2=O)C(=O)N1 (stereo not shown)
Among P and Q , whose measured pEC50 is the smaller figure? Indicate which entry you chose by stating its label. Q

I. Cc1cccc2nnn(C3CCC(=O)NC3=O)c(=O)c12 (stereo not shown)
II. O=C1CCC(N2Cc3cc(NCC(=O)Nc4ccccc4)ccc3C2=O)C(=O)N1 (stereo not shown)
I need your help: which of the pair I , II has higher pEC50? Answer by quoting the chosen item's label. I

A. N#Cc1ccc(Nc2ccc3c(c2)CN(C2CCC(=O)NC2=O)C3=O)nn1 (stereo not shown)
B. CC(Nc1ccc2c(c1)C(=O)N(C1CCC(=O)NC1=O)C2)C(=O)O (stereo not shown)
C. O=C1CCC(N2Cc3ccc(NCC(=O)NC4CCOC4)cc3C2=O)C(=O)N1 (stereo not shown)
Please order the records by their reported pEC50, lowest number first. Use the labels to give the requested order. C, B, A

P. Cc1ccc2nnn(C3CCC(=O)NC3=O)c(=O)c2c1 (stereo not shown)
Q. O=C1CCC(N2Cc3cc4c(cc3C2=O)OCO4)C(=O)N1 (stereo not shown)
Please indicate which has the smaller reported pEC50: P , or Q . Choose, then provide that item's label. P

a. CS(=O)(=O)Nc1cccc2c1CN(C1CCC(=O)NC1=O)C2=O (stereo not shown)
b. O=C1CCC(N2Cc3ccc(-c4ccccc4)cc3C2=O)C(=O)N1 (stereo not shown)
Lower value of pEC50 belongs to which: a or b ? Write the label of whichever entry you select. a

A. COCC(=O)Nc1cccc2c1CN(C1CCC(=O)NC1=O)C2=O (stereo not shown)
B. CN(C)C1c2ccccc2C(=O)N1C1CCC(=O)NC1=O (stereo not shown)
Thinking about recorded pEC50 values, which is higher, A or B ? Write the label of whichever entry you select. A
(A: 6.06, B: 5.84)

A. Nc1cccc2nnn(C3CCC(=O)NC3=O)c(=O)c12 (stereo not shown)
B. Cc1ccc2c(c1)C(=O)N(C1CCC(=O)NC1=O)C2 (stereo not shown)
C. O=C1CCC(N2Cc3c(cccc3-c3ccccc3)C2=O)C(=O)N1 (stereo not shown)
D. CC(C)OC1c2ccccc2C(=O)N1C1CCC(=O)NC1=O (stereo not shown)
Ascending by pEC50, please: list the compounds accordingly. Put the labels in the requested order and list them out. D, B, C, A
(D: 5.57, B: 6.57, C: 7.21, A: 7.48)

1. CC(=O)NCCNc1ccc2c(c1)CN(C1CCC(=O)NC1=O)C2=O (stereo not shown)
2. O=C1CCC(N2Cc3ccccc3C2)C(=O)N1 (stereo not shown)
Which gives the smaller pEC50 number: 1 or 2 ? Write down the label of the entry you select. 2
